# experimental.target: rat testicular 17(alpha)-hydroxylase/C17,20-lyase (Rattus norvegicus)
# Construct: rat testicular homogenates (prepared from 220-250g adult male Sprague-Dawley rats); from tissue; host or cells: testes of adult male Sprague-Dawley rats, homogenate
# Sequence (P11715 whole entry): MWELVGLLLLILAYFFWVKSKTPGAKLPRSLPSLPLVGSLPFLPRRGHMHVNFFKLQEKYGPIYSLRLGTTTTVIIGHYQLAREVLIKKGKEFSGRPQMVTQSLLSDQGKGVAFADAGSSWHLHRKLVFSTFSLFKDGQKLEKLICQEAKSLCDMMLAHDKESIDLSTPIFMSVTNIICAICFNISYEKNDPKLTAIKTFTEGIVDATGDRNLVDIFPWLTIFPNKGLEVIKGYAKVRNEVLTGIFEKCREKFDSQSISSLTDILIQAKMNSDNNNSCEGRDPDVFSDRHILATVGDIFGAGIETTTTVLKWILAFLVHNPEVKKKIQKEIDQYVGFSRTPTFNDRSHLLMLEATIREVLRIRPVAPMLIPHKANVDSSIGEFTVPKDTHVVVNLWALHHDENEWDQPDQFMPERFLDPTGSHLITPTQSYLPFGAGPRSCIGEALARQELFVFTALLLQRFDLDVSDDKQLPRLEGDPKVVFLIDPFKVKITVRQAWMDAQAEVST
# measurement.description: Hydroxylase/lyase assay, rat testicular homogenates, [21-14C]progesterone (Example 4, Table 3)
# Type: biochemical
# recorded.conditions: 0.75 h, pH 7.4, read-out: Inhibition of 17(alpha)-hydroxylase/C17,20-lyase (%), [I] = 10 × [S]
inhibition at 400 µM values by entry

{"columns": ["smiles.input", "experimental.target", "inhibition at 400 µM / %"],
 "data": [
  ["CC(C#N)=C1CC[C@H]2[C@@H]3CCC4=CC(=O)CC[C@]4(C)[C@H]3CC[C@]12C", "rat testicular 17(alpha)-hydroxylase/C17,20-lyase (Rattus norvegicus)", 89.7],
  ["C[C@@H](N)[C@H]1CC[C@H]2[C@@H]3CC=C4C[C@@H](O)CC[C@]4(C)[C@H]3CC[C@]12C", "rat testicular 17(alpha)-hydroxylase/C17,20-lyase (Rattus norvegicus)", 33.8],
  ["CC(=NO)[C@H]1CC[C@H]2[C@@H]3CC=C4C[C@@H](O)CC[C@]4(C)[C@H]3CC[C@]12C", "rat testicular 17(alpha)-hydroxylase/C17,20-lyase (Rattus norvegicus)", 29.2],
  ["C=C[C@H]1CC[C@H]2[C@@H]3CC=C4C[C@@H](O)CC[C@]4(C)[C@H]3CC[C@]12C", "rat testicular 17(alpha)-hydroxylase/C17,20-lyase (Rattus norvegicus)", 18.3],
  ["C#C[C@H]1CC[C@H]2[C@@H]3CC=C4C[C@@H](O)CC[C@]4(C)[C@H]3CC[C@]12C", "rat testicular 17(alpha)-hydroxylase/C17,20-lyase (Rattus norvegicus)", 3.84],
  ["C[C@]12CC[C@H]3[C@@H](CC=C4C[C@@H](O)CC[C@@]43C)[C@@H]1CC[C@@H]2[C@@]1(C)CO1", "rat testicular 17(alpha)-hydroxylase/C17,20-lyase (Rattus norvegicus)", 29.4],
  ["C[C@H](C=NO)[C@H]1CC[C@H]2[C@@H]3CCC4=CC(=O)CC[C@]4(C)[C@H]3CC[C@]12C", "rat testicular 17(alpha)-hydroxylase/C17,20-lyase (Rattus norvegicus)", 84],
  ["CC(=NO)C1=CC[C@H]2[C@@H]3CC=C4C[C@@H](O)CC[C@]4(C)[C@H]3CC[C@]12C", "rat testicular 17(alpha)-hydroxylase/C17,20-lyase (Rattus norvegicus)", 51.8],
  ["C[C@H](N)[C@H]1CC[C@H]2[C@@H]3CC=C4C[C@@H](O)CC[C@]4(C)[C@H]3CC[C@]12C", "rat testicular 17(alpha)-hydroxylase/C17,20-lyase (Rattus norvegicus)", 27.3],
  ["C[C@]12CC[C@H]3[C@@H](CC=C4C[C@@H](O)CC[C@@]43C)[C@@H]1CC[C@@H]2[C@]1(C)CO1", "rat testicular 17(alpha)-hydroxylase/C17,20-lyase (Rattus norvegicus)", 28.3]
]}

* * *

# experimental.target: C17,20-lyase (Rattus norvegicus)
# Construct: approximately 1 mg rat testicular microsomal protein in 450 microliters phosphate buffer; from tissue; host or cells: testes of adult male Sprague-Dawley rats (Charles River), microsomal fraction
# Sequence (P11715 whole entry): as above
# measurement.description: C17,20-lyase assay, rat testicular microsomes (Example 1, Table 1)
# Type: biochemical
property.name: Ki

{"columns": ["smiles.input", "recorded.result"],
 "data": [
  ["C[C@H](C=NO)[C@H]1CC[C@H]2[C@@H]3CCC4=CC(=O)CC[C@]4(C)[C@H]3CC[C@]12C", "1070 nM"]
]}
